Assayed Target: T1, monomeric recombinant cynomologus monkey Notch3 extracellular domain (containing EGF like domains 1-12) … (cynomologus monkey)
T1 construct: domain: EGF like domains 1-12; also called monomeric rcNotch3
Assay: SPR BIAcore T100, antibody captured by anti-human IgG Fc, monomeric rcNotch3 analyte, 25 C
Reported koff by item:
Numbers only; they are read as s⁻¹.

Some binders with known koff results, for comparison:
[[record]]
binder = "Hu4F11-74 (antibody, human IgG1, kappa, V domains shown, Humanized, human IgG1 kappa; Hv3-23 A28T S31H T62S heavy + Kv2D-29 N28Y kappa) VH: EVQLLESGGGLVQPGGSLRLSCAASGFTFSHYDMSWVRQAPGKGLEWVSYISRGGGSTYYPDSVKGRFTISRDNSKNTLYLQMNSLRAEDTAVYYCGRHATTAYWYFDVWGQGTMVTVSS VL: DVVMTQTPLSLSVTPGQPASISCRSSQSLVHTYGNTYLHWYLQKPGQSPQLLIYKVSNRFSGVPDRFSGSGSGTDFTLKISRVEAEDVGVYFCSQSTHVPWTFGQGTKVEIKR"
test_value = 0.0025

[[record]]
binder = "Hu4F11-78 (antibody, human IgG1, kappa, V domains shown, Humanized, human IgG1 kappa; Hv3-23 A28T S31H T62S heavy + Kv2D-29 N28Q kappa) VH: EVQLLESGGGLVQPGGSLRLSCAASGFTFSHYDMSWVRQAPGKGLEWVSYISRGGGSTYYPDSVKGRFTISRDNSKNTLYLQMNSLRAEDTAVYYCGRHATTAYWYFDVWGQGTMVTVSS VL: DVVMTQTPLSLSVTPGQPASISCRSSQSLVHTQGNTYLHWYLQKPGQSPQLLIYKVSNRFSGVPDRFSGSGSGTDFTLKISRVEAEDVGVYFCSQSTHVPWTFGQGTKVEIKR"
test_value = 0.0038

[[record]]
binder = "Hu4F11-71 (antibody, human IgG1, kappa, V domains shown, Humanized, human IgG1 kappa; Hv3-23 A28T T62S heavy + Kv2D-29 N28H kappa) VH: EVQLLESGGGLVQPGGSLRLSCAASGFTFSSYDMSWVRQAPGKGLEWVSYISRGGGSTYYPDSVKGRFTISRDNSKNTLYLQMNSLRAEDTAVYYCGRHATTAYWYFDVWGQGTMVTVSS VL: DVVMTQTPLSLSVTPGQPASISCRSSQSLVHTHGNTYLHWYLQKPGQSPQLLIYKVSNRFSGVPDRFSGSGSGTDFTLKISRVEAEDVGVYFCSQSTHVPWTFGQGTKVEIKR"
test_value = 0.004

[[record]]
binder = "Hu4F11-73 (antibody, human IgG1, kappa, V domains shown, Humanized, human IgG1 kappa; Hv3-23 A28T S31N T62S heavy + Kv2D-29 N28Y kappa) VH: EVQLLESGGGLVQPGGSLRLSCAASGFTFSNYDMSWVRQAPGKGLEWVSYISRGGGSTYYPDSVKGRFTISRDNSKNTLYLQMNSLRAEDTAVYYCGRHATTAYWYFDVWGQGTMVTVSS VL: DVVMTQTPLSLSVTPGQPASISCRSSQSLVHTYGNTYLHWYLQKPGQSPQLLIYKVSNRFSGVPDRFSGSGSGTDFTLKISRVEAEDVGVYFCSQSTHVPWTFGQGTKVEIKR"
test_value = 0.0019

[[record]]
binder = "Hu4F11-76 (antibody, human IgG1, kappa, V domains shown, Humanized, human IgG1 kappa; Hv3-23 S31H T62S heavy + Kv2D-29 N28Y kappa) VH: EVQLLESGGGLVQPGGSLRLSCAASGFAFSHYDMSWVRQAPGKGLEWVSYISRGGGSTYYPDSVKGRFTISRDNSKNTLYLQMNSLRAEDTAVYYCGRHATTAYWYFDVWGQGTMVTVSS VL: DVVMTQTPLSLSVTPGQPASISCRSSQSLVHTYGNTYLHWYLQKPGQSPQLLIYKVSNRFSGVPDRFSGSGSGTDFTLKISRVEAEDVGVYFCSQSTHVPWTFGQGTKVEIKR"
test_value = 0.0019


So for Hu4F11-77 (antibody, human IgG1, kappa, V domains shown, Humanized, human IgG1 kappa; Hv3-23 A28T S31N T62S heavy + Kv2D-29 N28Q kappa) VH: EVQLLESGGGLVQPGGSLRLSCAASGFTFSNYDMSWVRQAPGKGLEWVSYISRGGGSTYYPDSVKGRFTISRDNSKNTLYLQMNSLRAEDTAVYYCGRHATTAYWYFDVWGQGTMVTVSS VL: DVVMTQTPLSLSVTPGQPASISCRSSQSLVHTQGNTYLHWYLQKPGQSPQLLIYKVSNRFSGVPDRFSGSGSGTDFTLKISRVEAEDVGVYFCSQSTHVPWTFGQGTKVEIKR , the logged koff turned out to be 0.0025
